test system: WSU-DLCL2; experiment: Combination of EPZ-6438 and other therapeutic agents (4+3 model), WSU-DLCL2; conditions: Mutant EZH2 GCB; EPZ-6438 4 days then co-treatment 3 days (4+3 model)
ENDPOINT NAME: combination effect with EPZ-6438, WSU-DLCL2

Take a look at these entries with their results.
CC[C@H](Nc1ncnc2[nH]cnc12)c1nc2cccc(F)c2c(=O)n1-c1ccccc1 : S
COc1cc([C@@H]2c3cc4c(cc3[C@@H](O[C@@H]3O[C@@H]5CO[C@@H](C)O[C@H]5[C@H](O)[C@H]3O)[C@H]3COC(=O)[C@H]23)OCO4)cc(OC)c1O [Etoposide] : S
COc1ncc(-c2ccc3nccc(-c4ccnnc4)c3c2)cc1NS(=O)(=O)c1ccc(F)cc1F : S
COc1cc(Nc2ncc3c(n2)-c2ccc(Cl)cc2C(c2c(F)cccc2OC)=NC3)ccc1C(=O)O : ADD.
CC1(C)CCC(CN2CCN(c3ccc(C(=O)NS(=O)(=O)c4ccc(NCC5CCOCC5)c([N+](=O)[O-])c4)c(Oc4cnc5[nH]ccc5c4)c3)CC2)=C(c2ccc(Cl)cc2)C1 : S

Okay, now this molecule:
(Q) // query combination effect with EPZ-6438, WSU-DLCL2 value for entry Cc1nc(Nc2ncc(C(=O)Nc3c(C)cccc3Cl)s2)cc(N2CCN(CCO)CC2)n1
(A) S
